Tested on: glycogen synthase kinase-3 (GSK3A per assay name; protocol says GSK3B)
assay.summary: GSK3 binders on small-molecule microarrays, primary screen, biochemical, small-molecule microarray, 635 nm fluorescence, GSK3A (AID 1103); also: the record names both GSK3A and GSK3B
condition.set: small-molecule microarray binding, fluorescence 635 nm; higher = more signal
Recorded composite z-score, one value per entry.
Number, no unit, nothing else.

Q: Name the value of composite z-score reported for `C#CCN=C(N)N` when tested on glycogen synthase kinase-3 (GSK3A per assay name; protocol says GSK3B).
A: 0.605

Q: Tell me composite z-score of `CCC[C@@H]1[C@@H](Sc2ccccc2)[C@@H](C(=O)O)[C@H](c2ccc(C)cc2)N1S(=O)(=O)c1ccc(C)cc1` when tested on glycogen synthase kinase-3 (GSK3A per assay name; protocol says GSK3B).
A: 1.36

Q: Name the recorded composite z-score of NC(=O)N1C(=O)C2C(C1=O)C1C=C(CCCO)C2C(c2ccc(CN3CCCC3)cc2)N1Cc1cccc(OC(F)(F)F)c1 (configuration not stated) , assay system glycogen synthase kinase-3 (GSK3A per assay name; protocol says GSK3B).
A: 0.686

Q: For glycogen synthase kinase-3 (GSK3A per assay name; protocol says GSK3B), give composite z-score of the listed compound: COC(=O)C1=CC(CCCO)=CC(C2CC2)N(Cc2cccc(OC(F)(F)F)c2)C=C1C(=O)OC (configuration not stated)
A: -0.363

Q: Give composite z-score for `C=C(CC1([C@@H](NP(=O)(c2ccccc2)c2ccccc2)[C@H]2C[C@@H]2CCN(C(=O)OCC)S(=O)(=O)c2ccc(C)cc2)CC1)c1ccccc1` tested on glycogen synthase kinase-3 (GSK3A per assay name; protocol says GSK3B).
A: 0.288

Q: Enter recorded composite z-score with glycogen synthase kinase-3 (GSK3A per assay name; protocol says GSK3B) for CC(C)C[C@@H]1NC(=O)C([C@@H](C)OCc2ccccc2)NC(=O)[C@@]23C(=O)N[C@@H](Cc4ccccc4)C2[C@H](C)[C@@]2(C)O[C@H]2C3/C=C/CC/C=C/CNC1=O (some centres not stated) here.
A: 0.517

Please turn your attention to the following entry.
Q: // output composite z-score; input `COCCn1c(C(=O)N2CCCC2)cc2c1C[C@H]1CN(C(=O)c3ccccc3)[C@@](Cc3ccccc3)(C(=O)OC)[C@@H]21` ; system glycogen synthase kinase-3 (GSK3A per assay name; protocol says GSK3B)
A: 1.26

###

System: Neuregulin-1 EGF-like domain
assay.summary: binders of neuregulin-1 EGF-like domain, primary screen, biochemical, small-molecule microarray, 635 nm fluorescence (AID 1081);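 also: binding of the protein to compounds printed on small-molecule microarray slides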
condition.set: small-molecule microarray binding, higher = more signal
readout.name: composite z-score
// response body must contain only the number

Reference set, count: 3
Q: Identify measured composite z-score obtained with Neuregulin-1 EGF-like domain for `CO[C@H]1O[C@H](CO)[C@@H](OC(=O)Nc2ccc3c(c2)OCO3)[C@@H]2OC(=O)[C@@H](Cc3ccccc3)C/C=C/C[C@H](Cc3ccccc3)C(=O)O[C@@H]12` .
A: 0.976

Q: Give composite z-score for `COCCOC(=O)N1C(=O)[C@@]2(c3cc(C#CC4=CCCCC4)ccc31)[C@H](c1ccccc1OCCO)N1[C@H](c3ccccc3)[C@H](c3ccccc3)OC(=O)[C@H]1[C@@H]2C(N)=O` tested on Neuregulin-1 EGF-like domain.
A: 1.05

Q: Lab note: Neuregulin-1 EGF-like domain assay, enter composite z-score for C=CCC(OC(C)=O)[C@@H]1[C@@H](N(Cc2ccc(-c3cccc(C(F)(F)F)c3)o2)C(=O)c2cccc3ccccc23)c2cc(OCCCO)ccc2N1C(=O)c1ccc2ccccc2c1 (stereo partly specified) here
A: -0.332

New cases:
Q: Fetch value of composite z-score on Neuregulin-1 EGF-like domain for `CCOC(=O)C1=CC[C@@H](c2ccccc2)N(S(=O)(=O)c2ccc(C)cc2)[C@H]1C#N` .
A: 1.29

Q: Provide composite z-score, recorded with Neuregulin-1 EGF-like domain, of `COCCOC(=O)N1C(=O)[C@@]2(c3cc(C#CC4(O)CCCCCC4)ccc31)[C@H](C(=O)N1CCc3cc(OC)c(OC)cc3C1)[C@H]1C(=O)O[C@H](c3ccccc3)[C@H](c3ccccc3)N1[C@@H]2c1ccc(O)cc1`
A: 1.16

Q: Provide Neuregulin-1 EGF-like domain composite z-score reading for CC(c1ccccc1)C(O)C1C=CC2C(=O)N(c3ccccc3)C(=O)C2N1Nc1ccc(C#N)cc1 (stereo unspecified) .
A: 1.34
